Source: patent US20240116921A1

Target: phosphorylated EGFR (pEGFR) (Homo sapiens, UniProt P00533)
Construct: performed to measure phosphorylated EGFR levels using A431 cells (10% FBS); endogenous in cells
Sequence (P00533 25-1210): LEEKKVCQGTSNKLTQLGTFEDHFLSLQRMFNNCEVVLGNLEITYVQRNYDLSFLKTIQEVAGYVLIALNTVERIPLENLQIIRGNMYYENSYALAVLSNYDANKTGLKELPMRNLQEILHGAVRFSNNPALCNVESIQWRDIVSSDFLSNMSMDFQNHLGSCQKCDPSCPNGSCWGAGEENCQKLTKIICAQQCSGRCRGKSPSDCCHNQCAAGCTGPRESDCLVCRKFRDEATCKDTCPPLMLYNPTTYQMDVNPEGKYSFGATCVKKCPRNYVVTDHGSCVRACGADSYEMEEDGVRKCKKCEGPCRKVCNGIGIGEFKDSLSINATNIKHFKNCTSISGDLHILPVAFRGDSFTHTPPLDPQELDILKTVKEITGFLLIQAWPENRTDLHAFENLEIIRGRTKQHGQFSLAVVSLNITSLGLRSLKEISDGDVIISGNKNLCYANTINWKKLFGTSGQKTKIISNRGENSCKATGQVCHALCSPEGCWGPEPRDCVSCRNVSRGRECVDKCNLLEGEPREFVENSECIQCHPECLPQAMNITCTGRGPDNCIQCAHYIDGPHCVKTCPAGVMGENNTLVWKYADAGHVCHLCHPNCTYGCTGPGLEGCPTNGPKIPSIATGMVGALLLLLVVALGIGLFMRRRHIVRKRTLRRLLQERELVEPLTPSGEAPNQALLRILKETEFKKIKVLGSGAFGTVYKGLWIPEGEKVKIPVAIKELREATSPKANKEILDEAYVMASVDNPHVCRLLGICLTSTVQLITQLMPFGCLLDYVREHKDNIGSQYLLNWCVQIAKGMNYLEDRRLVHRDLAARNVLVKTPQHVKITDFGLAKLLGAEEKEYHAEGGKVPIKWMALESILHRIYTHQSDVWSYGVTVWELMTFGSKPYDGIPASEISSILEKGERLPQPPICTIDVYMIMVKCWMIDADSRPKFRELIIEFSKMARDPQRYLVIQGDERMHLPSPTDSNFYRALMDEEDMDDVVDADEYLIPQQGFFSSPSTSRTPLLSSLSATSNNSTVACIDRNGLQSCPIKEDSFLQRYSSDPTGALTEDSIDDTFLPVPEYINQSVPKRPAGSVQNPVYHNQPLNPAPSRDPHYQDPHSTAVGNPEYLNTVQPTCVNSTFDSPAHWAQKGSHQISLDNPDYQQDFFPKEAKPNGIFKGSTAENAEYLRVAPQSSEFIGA
Assay: Detection of phosphorylated EGFR (pEGFR) in EGF-stimulated A431 cells
Conditions: A431 cells (10% FBS), 4 hours incubation, EGF 30 ng/mL 10 minutes, AlphaLISA
Method: Enzyme-linked immunosorbent assays (ELISA) were performed to measure phosphorylated EGFR levels using A431 cells (10% FBS). A431 (1.0*10^4 cells/40 μl/well) cells were seeded in 384 well. […] Acceptor mix (PerkinElmer, cat #ALSU-PEGFR-A50K) was prepared just before use and 5 μL was dispensed to all the wells, followed by a 1.5-2 h incubation at room temperature in dark. […] Plates were read on the Envision (PerkinElmer) using standard AlphaLISA settings. […]
pIC50: −log10 of the molar value. Where a name gives a salt, the structure may show the parent alone.
Label class 0 if pIC50 falls below 6; label class 1 in every other case.

# compound, category.label
measured = [
    ("CN(C)C/C=C1\\CCN(c2ccc3ncnc(Nc4ccc(Oc5ccc6c(c5)ncn6C)cc4)c3n2)C1=O", "class 0"),
    ("Cc1cc(Nc2ncnc3ccc(N4C(=O)/C(=C\\CN(C)C)C5CC54)nc23)ccc1Oc1ccn2ncnc2c1 (centres unmarked)", "class 1"),
    ("C=C1CCN(c2ccc3ncnc(Nc4ccc(Oc5ccn6ncnc6c5)c(C)c4F)c3c2)C1=O", "class 0"),
    ("CC1CN(c2cc3c(Nc4ccc(Oc5ccc6c(c5)nnn6C)c(F)c4)ncnc3cn2)C(=O)/C1=C/CN(C)C (single isomer, unassigned) [Example S117, Enantiomer #2]", "class 0"),
    ("Cc1cc(Nc2ncnc3cnc(N4CC/C(=C\\CCN(C)C)C4=O)cc23)ccc1Oc1ccn2ncnc2c1 [Compound 60, formate]", "class 0"),
    ("CN(C)C/C=C1\\CCN(c2cc3c(Nc4ccc(Oc5ccc6c(c5)ncn6C)c(F)c4)ncnc3cn2)C1=O", "class 0"),
    ("Cc1c(Oc2ccc3c(c2)ncn3C)ccc(Nc2ncnc3cnc(N4CC/C(=C\\CN(C)C)C4=O)cc23)c1F", "class 0"),
    ("C=C1C(=O)N(c2ccc3ncnc(Nc4ccc(Oc5ccn6ncnc6c5)c(C)c4)c3c2)C2CC12 (single isomer, unassigned) [Example S21, Enantiomer # 2]", "class 0"),
    ("Cc1cc(Nc2ncnc3ccc(N4C(=O)C(=CCN(C)C)C5CC54)nc23)ccc1Oc1ccn2ncnc2c1 (single isomer, unassigned) [Example S108, Enantiomer #2]", "class 1"),
    ("Cc1cc(Nc2ncnc3ccc(N4CC/C(=C\\CN(C)C)C4=O)nc23)ccc1Oc1cccnc1", "class 1"),
    ("C=C1C(=O)N(c2cc3c(Nc4ccc(Oc5ccn6ncnc6c5)c(C)c4)ncnc3cn2)C[C@@H]1C", "class 1"),
    ("CC1CN(c2cc3c(Nc4cc(F)c(Oc5ccc6c(c5)nnn6C)cc4F)ncnc3cn2)C(=O)/C1=C/CN(C)C (single isomer, unassigned) [Example S125, Enantiomer #1]", "class 0"),
    ("Cc1cc(Nc2ncnc3ccc(N4CC/C(=C\\CN(C)C)C4=O)nc23)ccc1Oc1ccn2ncnc2c1", "class 0"),
    ("[2H]C([2H])([2H])n1nnc2cc(Oc3ccc(Nc4ncnc5ccc(N6CC/C(=C\\CN(C)C)C6=O)nc45)cc3C)ccc21", "class 0"),
    ("Cc1cc(Nc2ncnc3ccc(N4CC(C)C(=CCN(C)C)C4=O)nc23)ccc1Oc1ccc2c(c1)nnn2C (single isomer, unassigned) [Example S126, Enantiomer #1]", "class 1"),
    ("C=C1C(=O)N(c2ccc3ncnc(Nc4ccc(Cc5ccn6ncnc6c5)c(C)c4)c3c2)C2CC12 (single isomer, unassigned) [Example S79, Enantiomer #1]", "class 0"),
    ("Cc1cc(Nc2ncnc3ccc(N4CC/C(=C\\CN(C)C)C4=O)nc23)c(F)cc1Oc1ccc2c(c1)ncn2C", "class 0"),
    ("C=C1C(=O)N(c2ccc3ncnc(Nc4ccc(Oc5ccc6c(c5)ncn6C)c(C)c4)c3c2)C2CC12 (single isomer, unassigned) [Example S33, Enantiomer # 2]", "class 1"),
    ("C=C1C(=O)N(c2cc3c(Nc4ccc(Oc5ccn6ncnc6c5)c(C)c4)ncnc3cn2)C2CC12 (single isomer, unassigned; enantiomer 2) [Example S40, Enantiomer # 2]", "class 0"),
    ("Cc1cc(Nc2ncnc3ccc(N4CC/C(=C\\CN(C)C)C4=O)nc23)ccc1Oc1ccc2c(c1)ncn2C", "class 1"),
    ("Cc1cc(Nc2ncnc3cnc(N4CC/C(=C\\CN(C)C)C4=O)cc23)ccc1Oc1ccn2ncnc2c1", "class 0"),
    ("C=C1C(=O)N(c2ccc3ncnc(Nc4ccc(Oc5ccn6ncnc6c5)c(C)c4)c3c2)CC1CN(C)C (centres unmarked)", "class 1"),
]
